The measurements presented in this section are drawn from paper PMC9307983.

tested_target: MGL, Ser339Ala (Citrobacter freundii, UniProt Q84AR1, S339A)
Type: biochemical
applied_conditions: Ser339Ala MGL; 30°C, pH 8.0, coupled with HOHxoDH or LDH
Readings of Km for the listed compounds
Dear colleague, please return just the value in mM, with no unit written.

Use these answered entries as a reference point.
>  <compound>
CC(=O)OCC[C@H](N)C(=O)O [O-Ac-L-Hse, O-acetyl-L-homoserine]

>  <tested_target>
MGL, Ser339Ala (Citrobacter freundii, UniProt Q84AR1, S339A)

>  <Km / mM>
2.07

$$$$
>  <compound>
NC(CCS)C(=O)O (racemic) [DL-Hcy]

>  <tested_target>
MGL, Ser339Ala (Citrobacter freundii, UniProt Q84AR1, S339A)

>  <Km / mM>
3.39

$$$$
>  <compound>
CCSCC[C@H](N)C(=O)O [S-Et-L-Hcy]

>  <tested_target>
MGL, Ser339Ala (Citrobacter freundii, UniProt Q84AR1, S339A)

>  <Km / mM>
0.54

$$$$

## Input Requested field: Km. Item: CC(=O)OC[C@H](N)C(=O)O [O-Ac-L-Ser]
## Output 16.4

---

tested_target: MGL, Ser339Ala (Citrobacter freundii, UniProt Q84AR1, S339A)
Assay type: biochemical
applied_conditions: Ser339Ala MGL; 30°C, pH 8.0, coupled with HOHxoDH or LDH
Readings of kcat for the listed molecules
Dear colleague, please return just the value in s^–1, with no unit written.

Use these answered entries as a reference point.
>  <molecule>
NC(CCS)C(=O)O (racemic)

>  <tested_target>
MGL, Ser339Ala (Citrobacter freundii, UniProt Q84AR1, S339A)

>  <kcat, s^–1>
0.28

$$$$
>  <molecule>
CCSCC[C@H](N)C(=O)O

>  <tested_target>
MGL, Ser339Ala (Citrobacter freundii, UniProt Q84AR1, S339A)

>  <kcat, s^–1>
0.16

$$$$
>  <molecule>
CC(=O)OC[C@H](N)C(=O)O

>  <tested_target>
MGL, Ser339Ala (Citrobacter freundii, UniProt Q84AR1, S339A)

>  <kcat, s^–1>
0.047

$$$$

Kindly review the next molecule as well.
## Input Requested field: kcat. Item: CC(=O)OCC[C@H](N)C(=O)O
## Output 0.77

---

Readings of Ki for the listed molecules
tested_target: MGL, Ser339Ala (Citrobacter freundii, UniProt Q84AR1, S339A)
assay_protocol: biochemical
Assay type: biochemical
applied_conditions: Ser339Ala MGL; γ-elimination of L-methionine, 30°C, pH 8.0; read-out: K I (inhibition constant)
Dear colleague, please return just the value in mM, with no unit written.

Use these answered entries as a reference point.
>  <mol>
CCCC[C@H](N)C(=O)O

>  <outcome_measure>
Ki

>  <measurement_unit>
mM

>  <assay_result>
0.89

$$$$
>  <mol>
CC[C@H](N)C(=O)O

>  <outcome_measure>
Ki

>  <measurement_unit>
mM

>  <assay_result>
4.66

$$$$
>  <mol>
NCC(=O)O

>  <outcome_measure>
Ki

>  <measurement_unit>
mM

>  <assay_result>
22.9

$$$$

Kindly review the next molecule as well.
## Input Return Ki measured with MGL, Ser339Ala (Citrobacter freundii, UniProt Q84AR1, S339A) given this molecule: CCC[C@H](N)C(=O)O
## Output 1.7
